I'd be grateful if you could share measured Fold increase over vehicle for these entries.
TARGET_SYSTEM: TLR8 (Homo sapiens, UniProt Q9NR97)
Sequence (Q9NR97 27-1041): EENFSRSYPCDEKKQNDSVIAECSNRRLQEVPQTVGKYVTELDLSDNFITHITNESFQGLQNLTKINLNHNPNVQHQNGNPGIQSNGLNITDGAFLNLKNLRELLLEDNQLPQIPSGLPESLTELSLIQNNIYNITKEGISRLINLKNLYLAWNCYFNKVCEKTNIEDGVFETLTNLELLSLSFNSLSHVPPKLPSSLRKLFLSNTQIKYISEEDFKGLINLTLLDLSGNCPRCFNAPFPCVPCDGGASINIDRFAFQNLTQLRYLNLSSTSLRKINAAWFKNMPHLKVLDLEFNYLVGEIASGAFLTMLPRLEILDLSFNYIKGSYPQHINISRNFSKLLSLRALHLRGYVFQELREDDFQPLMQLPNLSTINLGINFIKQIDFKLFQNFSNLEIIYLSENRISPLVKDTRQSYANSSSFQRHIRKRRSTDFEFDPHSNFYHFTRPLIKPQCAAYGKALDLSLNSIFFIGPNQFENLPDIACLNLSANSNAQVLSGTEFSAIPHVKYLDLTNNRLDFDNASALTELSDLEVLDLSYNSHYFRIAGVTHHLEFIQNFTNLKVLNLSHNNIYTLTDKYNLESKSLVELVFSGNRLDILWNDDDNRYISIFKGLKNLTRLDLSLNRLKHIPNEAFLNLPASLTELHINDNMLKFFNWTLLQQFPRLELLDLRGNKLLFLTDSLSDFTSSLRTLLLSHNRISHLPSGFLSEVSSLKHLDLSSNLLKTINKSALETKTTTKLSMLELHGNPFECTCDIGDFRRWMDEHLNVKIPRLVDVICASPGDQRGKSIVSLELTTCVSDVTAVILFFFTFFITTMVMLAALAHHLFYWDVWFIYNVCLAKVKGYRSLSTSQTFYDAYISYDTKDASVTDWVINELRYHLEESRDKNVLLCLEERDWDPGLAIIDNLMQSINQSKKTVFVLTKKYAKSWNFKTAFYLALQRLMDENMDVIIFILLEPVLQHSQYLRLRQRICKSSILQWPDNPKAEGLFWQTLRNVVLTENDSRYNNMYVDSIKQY
ASSAY_TEXT: Dose dependent TLR8-mediated NF-κB-luciferase response in HEK293 cells transfected with TLR8 (Example 5)
Type: cell-based
Set-up: expressed in transfected cells; host or cells: HEK293 (ATCC CRL-1573), pIRES vector, G-418 selected, co-transfected with NFkB-luc reporter
MEASUREMENT_CONDITIONS: 1.0 μM

// worked examples, Fold increase over vehicle included
CCOCc1nc2c(N)nc3cc(-c4cccnc4)ccc3c2n1CC(O)CO (stereo not shown)
3.1 fold
COCCc1nc2c(N)nc3ccccc3c2n1CCCCNC(=O)c1cnc2ccccc2c1
1.0 fold
CCOCc1nc2c(N)nc3cc(-c4cncc(CO)c4)ccc3c2n1CC(C)(C)O
4.1 fold
CCOCc1nc2c(N)nc3cc(-c4ccc(C(=O)N(C)OC)cc4)ccc3c2n1CC(C)(C)O
2.9 fold
CCOCC(=O)NC(C)(C)Cn1c(COCC)nc2c(N)nc3ccccc3c21
3.3 fold

Record Fold increase over vehicle for all entries; do not skip any.
1. CCOCc1nc2c(N)nc3ccccc3c2n1CC(C)(C)NC(=O)NC(C)C
2. CCCCc1nc2c(N)nc3ccccc3c2n1CCCNC(=O)N1CCOCC1

1: 1.1 fold; 2: 1.2 fold

Reference for the values: patent US7375180B2
